- MEASURED TARGET: Insulin receptor (Homo sapiens, UniProt P06213)
- Sequence (P06213 28-758 limits assumed): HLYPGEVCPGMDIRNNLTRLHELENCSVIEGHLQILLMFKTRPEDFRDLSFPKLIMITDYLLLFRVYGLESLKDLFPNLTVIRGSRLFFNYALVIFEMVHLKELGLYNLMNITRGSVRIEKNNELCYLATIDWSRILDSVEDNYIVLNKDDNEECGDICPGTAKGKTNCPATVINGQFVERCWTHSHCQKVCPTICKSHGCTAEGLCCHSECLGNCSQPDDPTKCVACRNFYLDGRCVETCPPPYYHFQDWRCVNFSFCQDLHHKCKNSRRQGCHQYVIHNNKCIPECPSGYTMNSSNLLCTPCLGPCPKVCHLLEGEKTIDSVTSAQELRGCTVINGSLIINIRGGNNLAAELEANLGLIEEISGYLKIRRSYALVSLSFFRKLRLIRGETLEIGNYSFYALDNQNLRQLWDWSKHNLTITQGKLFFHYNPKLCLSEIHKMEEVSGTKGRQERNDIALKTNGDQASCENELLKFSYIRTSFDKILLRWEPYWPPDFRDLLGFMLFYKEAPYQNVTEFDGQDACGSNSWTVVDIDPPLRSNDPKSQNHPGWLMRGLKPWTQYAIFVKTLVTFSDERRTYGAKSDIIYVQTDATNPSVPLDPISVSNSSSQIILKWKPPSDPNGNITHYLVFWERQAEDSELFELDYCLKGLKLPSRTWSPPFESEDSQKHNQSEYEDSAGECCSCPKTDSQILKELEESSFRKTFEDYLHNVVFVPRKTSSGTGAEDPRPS
- Sequence (P06213 763-1382 limits assumed): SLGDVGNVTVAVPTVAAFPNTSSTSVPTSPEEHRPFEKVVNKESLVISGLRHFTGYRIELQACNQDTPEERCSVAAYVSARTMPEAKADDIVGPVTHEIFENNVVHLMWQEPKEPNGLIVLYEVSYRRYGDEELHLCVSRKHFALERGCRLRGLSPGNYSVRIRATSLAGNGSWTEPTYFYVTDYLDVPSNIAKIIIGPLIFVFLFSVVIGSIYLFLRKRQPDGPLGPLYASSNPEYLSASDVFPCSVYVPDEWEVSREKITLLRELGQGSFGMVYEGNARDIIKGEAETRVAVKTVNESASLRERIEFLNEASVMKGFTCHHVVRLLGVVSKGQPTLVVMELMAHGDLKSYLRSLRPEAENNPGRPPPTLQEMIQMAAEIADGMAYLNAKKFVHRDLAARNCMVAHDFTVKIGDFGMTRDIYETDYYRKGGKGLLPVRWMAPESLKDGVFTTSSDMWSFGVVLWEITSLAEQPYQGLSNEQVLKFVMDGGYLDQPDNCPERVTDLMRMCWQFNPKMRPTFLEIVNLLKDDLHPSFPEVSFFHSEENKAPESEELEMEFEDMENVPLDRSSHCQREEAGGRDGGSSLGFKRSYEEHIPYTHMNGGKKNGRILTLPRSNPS
pKi: −log10 of the molar value.

SMI	MEASURED TARGET	pKi
CN1CCN(CCCc2ccc(NC(=O)c3cc(-c4ccc5c(c4)OCO5)cnc3O)cc2)CC1	Insulin receptor (Homo sapiens, UniProt P06213)	5.05

----------
Measured pIC50 (Insulin receptor (Homo sapiens))
pIC50: −log10 of the molar value.

SMI	BOUND TYPE	pIC50
COc1ncc(-c2ccc3c(c2)OCO3)cc1C(=O)Nc1ccc(CN2CCN(C)CC2)cc1	<	4.40
CN1CCN(Cc2ccc(N(C)C(=O)c3cc(-c4ccc5c(c4)OCO5)cnc3O)cc2)CC1	=	4.49
CN1CCN(CCCc2ccc(NC(=O)c3cc(-c4ccc5c(c4)OCO5)cnc3O)cc2)CC1	=	5.00
COc1ccc(-c2c[nH]c(=O)c(C(=O)Nc3ccc(CN4CCN(C)CC4)cc3)c2)cn1	=	4.86

----------
- MEASURED TARGET: ALK tyrosine kinase receptor (Homo sapiens, UniProt Q9UM73)
- Sequence (Q9UM73 whole entry): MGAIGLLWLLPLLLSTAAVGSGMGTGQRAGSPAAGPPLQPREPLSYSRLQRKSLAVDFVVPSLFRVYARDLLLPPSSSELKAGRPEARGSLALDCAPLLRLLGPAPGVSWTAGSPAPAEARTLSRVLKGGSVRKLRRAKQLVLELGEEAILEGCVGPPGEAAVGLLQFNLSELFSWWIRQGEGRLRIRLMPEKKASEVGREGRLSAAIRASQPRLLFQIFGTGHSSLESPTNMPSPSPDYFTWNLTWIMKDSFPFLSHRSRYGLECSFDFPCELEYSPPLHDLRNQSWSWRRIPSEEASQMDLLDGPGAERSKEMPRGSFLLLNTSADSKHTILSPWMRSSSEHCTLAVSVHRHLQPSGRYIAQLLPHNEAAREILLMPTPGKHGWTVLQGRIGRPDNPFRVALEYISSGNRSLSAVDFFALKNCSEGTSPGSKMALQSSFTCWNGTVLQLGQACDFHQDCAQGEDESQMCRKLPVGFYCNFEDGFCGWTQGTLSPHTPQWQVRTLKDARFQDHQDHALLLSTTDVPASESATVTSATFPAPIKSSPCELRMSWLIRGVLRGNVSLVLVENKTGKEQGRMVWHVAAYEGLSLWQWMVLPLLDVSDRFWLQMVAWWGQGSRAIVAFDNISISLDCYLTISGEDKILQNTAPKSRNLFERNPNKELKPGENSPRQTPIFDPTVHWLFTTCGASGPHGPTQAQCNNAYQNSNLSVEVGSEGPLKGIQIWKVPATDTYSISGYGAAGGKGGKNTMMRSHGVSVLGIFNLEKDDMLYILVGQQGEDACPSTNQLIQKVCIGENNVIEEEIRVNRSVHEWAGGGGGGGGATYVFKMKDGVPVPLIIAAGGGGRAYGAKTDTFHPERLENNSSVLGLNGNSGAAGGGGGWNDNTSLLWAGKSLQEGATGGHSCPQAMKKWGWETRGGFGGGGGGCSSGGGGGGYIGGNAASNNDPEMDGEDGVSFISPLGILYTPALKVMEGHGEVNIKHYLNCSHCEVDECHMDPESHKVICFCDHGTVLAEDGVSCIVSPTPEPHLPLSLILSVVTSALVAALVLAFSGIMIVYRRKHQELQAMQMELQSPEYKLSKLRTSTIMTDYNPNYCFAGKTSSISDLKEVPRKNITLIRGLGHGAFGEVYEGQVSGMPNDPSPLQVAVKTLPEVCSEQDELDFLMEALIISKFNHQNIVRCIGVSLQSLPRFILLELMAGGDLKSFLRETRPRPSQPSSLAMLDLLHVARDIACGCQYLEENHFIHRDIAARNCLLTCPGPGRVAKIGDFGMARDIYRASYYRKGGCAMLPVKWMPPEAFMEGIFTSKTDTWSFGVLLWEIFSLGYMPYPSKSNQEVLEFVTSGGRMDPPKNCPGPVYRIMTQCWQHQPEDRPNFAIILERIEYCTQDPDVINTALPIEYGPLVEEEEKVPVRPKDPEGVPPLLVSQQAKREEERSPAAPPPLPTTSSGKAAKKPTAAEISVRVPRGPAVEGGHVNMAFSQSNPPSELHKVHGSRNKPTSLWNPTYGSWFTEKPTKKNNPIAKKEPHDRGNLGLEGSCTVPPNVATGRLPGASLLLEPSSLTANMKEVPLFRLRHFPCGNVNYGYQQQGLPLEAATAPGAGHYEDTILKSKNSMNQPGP
- TEST METHOD NOTES: Inhibitory activity against ALK
Entries and their IC50 values follow.
RESULT TYPE: IC50 (µM)

SMI	MEASURED TARGET	RESULT TYPE	ENDPOINT VALUE
CN1CCN(Cc2ccc(NC(=O)c3cc(-c4ccc5c(c4)OCO5)cnc3O)cc2)CC1	ALK tyrosine kinase receptor (Homo sapiens, UniProt Q9UM73)	IC50	0.9
COc1ccc(-c2c[nH]c(=O)c(C(=O)Nc3ccc(CN4CCN(C)CC4)cc3)c2)cn1	ALK tyrosine kinase receptor (Homo sapiens, UniProt Q9UM73)	IC50	3
COc1cc(CN2CCN(C)CC2)ccc1NC(=O)c1cc(-c2ccc3c(c2)OCO3)cnc1O	ALK tyrosine kinase receptor (Homo sapiens, UniProt Q9UM73)	IC50	13.8
CN1CCN(Cc2ccc(NC(=O)c3cc(-c4ccc5nccnc5c4)c[nH]c3=O)cc2)CC1	ALK tyrosine kinase receptor (Homo sapiens, UniProt Q9UM73)	IC50	5.5
Cc1cc(CN2CCN(C)CC2)ccc1NC(=O)c1cc(-c2ccc3c(c2)OCO3)cnc1O	ALK tyrosine kinase receptor (Homo sapiens, UniProt Q9UM73)	IC50	14.5
Cc1nc2cc(-c3cnc(O)c(C(=O)Nc4ccc(CN5CCN(C)CC5)cc4)c3)ccc2s1	ALK tyrosine kinase receptor (Homo sapiens, UniProt Q9UM73)	IC50	3.8
CN1CCN(Cc2ccc(N(C)C(=O)c3cc(-c4ccc5c(c4)OCO5)cnc3O)cc2)CC1	ALK tyrosine kinase receptor (Homo sapiens, UniProt Q9UM73)	IC50	3.7

----------
- MEASURED TARGET: Receptor-type tyrosine-protein kinase FLT3 (Homo sapiens, UniProt P36888)
- Sequence (P36888 whole entry): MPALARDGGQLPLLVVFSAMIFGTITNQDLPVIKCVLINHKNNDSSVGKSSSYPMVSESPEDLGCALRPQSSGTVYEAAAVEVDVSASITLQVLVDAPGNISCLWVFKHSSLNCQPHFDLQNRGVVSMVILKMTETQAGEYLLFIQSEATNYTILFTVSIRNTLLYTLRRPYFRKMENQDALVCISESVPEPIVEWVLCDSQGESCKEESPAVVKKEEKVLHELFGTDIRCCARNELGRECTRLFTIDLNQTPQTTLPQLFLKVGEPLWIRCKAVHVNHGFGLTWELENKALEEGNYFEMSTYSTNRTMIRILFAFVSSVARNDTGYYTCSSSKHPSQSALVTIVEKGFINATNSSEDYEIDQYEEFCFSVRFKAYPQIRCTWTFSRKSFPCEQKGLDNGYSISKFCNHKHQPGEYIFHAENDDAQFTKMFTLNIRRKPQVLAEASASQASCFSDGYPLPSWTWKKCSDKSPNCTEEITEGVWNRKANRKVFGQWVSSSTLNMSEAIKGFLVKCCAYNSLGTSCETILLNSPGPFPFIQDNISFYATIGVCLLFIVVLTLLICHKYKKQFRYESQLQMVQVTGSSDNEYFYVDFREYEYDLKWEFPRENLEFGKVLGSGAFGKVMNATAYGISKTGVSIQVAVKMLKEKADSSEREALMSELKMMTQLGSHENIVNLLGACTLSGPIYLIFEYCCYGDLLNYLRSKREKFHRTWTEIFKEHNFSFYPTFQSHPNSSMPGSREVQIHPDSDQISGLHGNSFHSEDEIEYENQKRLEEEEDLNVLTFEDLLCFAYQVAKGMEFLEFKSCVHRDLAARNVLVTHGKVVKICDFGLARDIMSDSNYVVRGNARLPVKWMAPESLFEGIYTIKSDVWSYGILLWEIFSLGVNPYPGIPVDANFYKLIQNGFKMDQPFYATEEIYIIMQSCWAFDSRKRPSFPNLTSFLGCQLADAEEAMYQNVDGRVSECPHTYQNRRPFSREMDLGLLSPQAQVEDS
RESULT TYPE: IC50 (µM)

SMI	RESULT TYPE	UNIT ABBREV	ENDPOINT VALUE
CN1CCN(CCc2ccc(NC(=O)c3cc(-c4ccc5c(c4)OCO5)cnc3O)cc2)CC1	IC50	µM	4
